- System: in vivo angiogenesis, blood vessel count
- TEST_PROTOCOL: reduction of blood vessel formation in vivo – HTS, in vivo study (AID 732);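 also: zebrafish embryos dosed at one day post fertilization; 0% = reference inhibitor and 100% = plate mean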
- CONDITIONS_USED: stronger effect = lower value;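 tested at 30 µM in the well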
RECORDED_ENDPOINT: vessel count % control (%)
State just the number; it will be interpreted in %.

For CN1CCc2c(cc(O)c(O)c2Cl)C(c2cccc(Cl)c2)C1 (stereo unspecified) , what is its reported vessel count % control?
118

For CN(C)CC/C=C1\c2ccccc2COc2ccccc21 , what is its reported vessel count % control?
97.3

For CC(=O)c1c(O)c(C)c(O)c(Cc2c(O)c3c(c(C(=O)/C=C/c4ccccc4)c2O)OC(C)(C)C=C3)c1O , what is its reported vessel count % control?
0

For O=c1onc2n1-c1cc(Br)ccc1OC2 , what is its reported vessel count % control?
95.9

For CNC(=O)c1cc2c(cn1)[nH]c1ccccc12 , what is its reported vessel count % control?
101

For Clc1ccccc1C(c1ccccc1)(c1ccccc1)n1ccnc1 , what is its reported vessel count % control?
114
